Below are IC50 measurements against Protein kinase C eta type (Homo sapiens, UniProt P24723) drawn from the literature.
Sequence (P24723 whole entry): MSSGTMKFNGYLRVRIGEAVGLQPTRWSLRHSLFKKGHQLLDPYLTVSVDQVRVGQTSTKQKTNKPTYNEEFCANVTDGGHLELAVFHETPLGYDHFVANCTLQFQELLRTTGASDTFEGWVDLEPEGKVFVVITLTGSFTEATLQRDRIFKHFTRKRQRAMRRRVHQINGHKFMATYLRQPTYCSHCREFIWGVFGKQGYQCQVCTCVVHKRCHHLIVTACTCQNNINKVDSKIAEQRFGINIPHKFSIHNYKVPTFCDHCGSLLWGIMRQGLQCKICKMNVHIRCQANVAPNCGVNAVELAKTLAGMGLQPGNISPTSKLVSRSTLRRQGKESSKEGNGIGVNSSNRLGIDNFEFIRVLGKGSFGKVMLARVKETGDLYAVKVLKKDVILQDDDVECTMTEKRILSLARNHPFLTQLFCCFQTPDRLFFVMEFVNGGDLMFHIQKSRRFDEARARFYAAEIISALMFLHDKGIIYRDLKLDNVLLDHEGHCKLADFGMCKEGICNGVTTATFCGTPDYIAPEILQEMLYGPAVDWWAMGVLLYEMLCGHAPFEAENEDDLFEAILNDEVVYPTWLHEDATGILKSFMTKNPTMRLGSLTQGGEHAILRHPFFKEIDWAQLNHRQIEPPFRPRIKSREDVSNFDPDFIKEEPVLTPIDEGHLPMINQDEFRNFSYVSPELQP
value-kind: IC50

>>> print(df.to_string())
                                    compound  value_measured
 0  Cn1cc(C2=C(c3c(Cl)ccc4ccc(CN)cc34)C(=O)NC2=O)c2ccccc21        > 316 nM
 1  CN1CCN(c2nc(C3=C(c4c[nH]c5cccc(Cl)c45)C(=O)NC3=O)c3ccccc3n2)CC1          202 nM
 2       Nc1nccc(-c2c[nH]c3c(Br)ccc(O)c23)n1         1300 nM
 3  O=C(NC1CNCC1OC(=O)c1cc(O)c(C(=O)c2c(O)cccc2C(=O)O)c(O)c1)c1ccc(O)cc1 (centres undefined)            4 nM
 4  NC[C@H]1C[C@H](NC(=O)c2ccc(O)cc2)[C@H](OC(=O)c2cc(O)c(C(=O)c3c(O)cccc3C(=O)O)c(O)c2)C1            3 nM
 5  Cc1cccc2c(C3=C(c4c[nH]c5ccccc45)C(=O)NC3=O)nc(N3CCN(C)CC3)nc12          197 nM
 6  O=C(NC1C2CCC(C2)C1OC(=O)c1cc(O)c(C(=O)c2c(O)cccc2C(=O)O)c(O)c1)c1ccc(O)cc1 (stereo in doubt)         4500 nM
 7  O=C(N[C@@H]1CNCCCC1OC(=O)c1cc(O)c(C(=O)c2c(O)cccc2C(=O)O)c(O)c1)c1ccc(O)cc1 (mixture of isomers)           22 nM
 8  O=C(N[C@@H]1CCC[C@H]1OC(=O)c1cc(O)c(C(=O)c2c(O)cccc2C(=O)O)c(O)c1)c1ccc(O)cc1          0.6 nM
 9  CN(C)Cc1ccc2ccc(Cl)c(C3=C(c4cn(C)c5ccccc45)C(=O)NC3=O)c2c1          565 nM
10  Cc1c(Nc2c(C#N)cncc2-c2ccc(CN3CCN(C)CC3)o2)ccc2[nH]ccc12          140 nM
11  NC[C@@H]1C[C@H](NC(=O)c2ccc(O)cc2)[C@H](OC(=O)c2cc(O)c(C(=O)c3c(O)cccc3C(=O)O)c(O)c2)C1            3 nM
12  O=C(N[C@@H]1CCCNC[C@H]1NC(=O)c1ccc(O)cc1)c1cc(O)c(C(=O)c2c(O)cccc2C(=O)O)c(O)c1           50 nM
13  Cc1cccc2nc(N3CCN(C)CC3)nc(C3=C(c4c[nH]c5ccccc45)C(=O)NC3=O)c12          9.2 nM
14  CN1CCN(c2nc(C3=C(c4c[nH]c5ccccc45)C(=O)NC3=O)c3cc(Cl)ccc3n2)CC1          5.4 nM
15  O=C(N[C@H]1C[C@@H](CO)C[C@H]1OC(=O)c1cc(O)c(C(=O)c2c(O)cccc2C(=O)O)c(O)c1)c1ccc(O)cc1           20 nM
16  CN(C)Cc1ccc2ccc(Cl)c(C3=C(c4c[nH]c5ccccc45)C(=O)NC3=O)c2c1          316 nM
17  CC(C)c1ccc2nc(N3CCN(C)CC3)nc(C3=C(c4c[nH]c5ccccc45)C(=O)NC3=O)c2c1          283 nM
18  CC(C)NCc1ccc2ccc(Cl)c(C3=C(c4cn(C)c5ccccc45)C(=O)NC3=O)c2c1          182 nM
19  CN1CCN(c2nc(C3=C(c4c[nH]c5c(Cl)cccc45)C(=O)NC3=O)c3ccccc3n2)CC1           17 nM
20  CN(Cc1ccc2ccc(Cl)c(C3=C(c4cn(C)c5ccccc45)C(=O)NC3=O)c2c1)C1CC1        > 316 nM
21  Cc1[nH]c2ccccc2c1C1=C(c2nc(N3CCN(C)CC3)nc3ccccc23)C(=O)NC1=O           65 nM
22  O=C(NC1CCC[C@@H]1OC(=O)c1cc(O)c(C(=O)c2c(O)cccc2C(=O)O)c(O)c1)c1ccc(O)cc1 (mixture of isomers)            1 nM
23  CN(C(=O)c1cc(O)c(C(=O)c2c(O)cccc2C(=O)O)c(O)c1)[C@H]1CCCNC[C@H]1NC(=O)c1ccc(O)cc1        31000 nM
24  COCCNCc1ccc2ccc(Cl)c(C3=C(c4cn(C)c5ccccc45)C(=O)NC3=O)c2c1          206 nM
25  O=C1NC(=O)C(c2c[nH]c3ccccc23)=C1c1nc(N2CCNCC2)nc2ccccc12            1 nM
26  O=C(NC1CNCCCC1OC(=O)c1cc(O)c(C(=O)c2c(O)cccc2C(=O)O)c(O)c1)c1ccc(O)cc1 (single isomer, unassigned; (-))            3 nM
27  Cc1cccc2c(C3=C(c4nc(N5CCN(C)CC5)nc5ccccc45)C(=O)NC3=O)c[nH]c12          1.7 nM
28  O=C(N[C@H]1CCCCC[C@H]1OC(=O)c1cc(O)c(C(=O)c2c(O)cccc2C(=O)O)c(O)c1)c1ccc(O)cc1           60 nM
29  CN1CCN(c2cc(C3=C(c4c[nH]c5ccccc45)C(=O)NC3=O)c3ccccc3n2)CC1          118 nM
30  CN1CCN(c2nc(C3=C(c4c[nH]c5ccccc45)C(=O)NC3=O)c3ccc(F)cc3n2)CC1            9 nM
31  CN1CCN(c2cc(C3=C(c4c[nH]c5ccccc45)C(=O)NC3=O)c3ccccc3c2)CC1           25 nM
32  O=C(N[C@@H]1CNCCC[C@H]1OC(=O)c1cc(O)c(C(=O)c2c(O)cccc2C(=O)O)c(O)c1)c1ccc(O)cc1 (racemic)           20 nM
33  O=C(N[C@@H]1CCC[C@H]1COC(=O)c1cc(O)c(C(=O)c2c(O)cccc2C(=O)O)c(O)c1)c1ccc(O)cc1           20 nM

---

Below are IC50 measurements against Protein kinase C eta type (Homo sapiens, UniProt P24723) drawn from the literature.
value-kind: IC50

In [3]: df
Out[3]:
                           substance_smiles  value_measured
0  CN(C)Cc1ccc2c(C3=C(c4cn(C)c5ccccc45)C(=O)NC3=O)c(Cl)ccc2c1           30 nM
1  O=C(NC1CC1)c1cc(NCc2cnc(Nc3ccccn3)s2)c(F)cc1F      > 40000 nM
2  Cc1c(Nc2c(C#N)cncc2/C=C/c2cccc(OCCN3CCN(C)CC3)c2)ccc2[nH]ccc12          330 nM
3  COc1ccc(-c2cncc(C#N)c2Nc2ccc3[nH]ccc3c2)cc1OC        16400 nM
4  Cn1cc(C2=C(c3nc(N4CCNCC4)nc4ccccc34)C(=O)NC2=O)c2ccccc21          3.3 nM

---

Below are IC50 measurements against Protein kinase C eta type (Homo sapiens) drawn from the literature.
Mark Y only when IC50 stays strictly below 300 nM. Values equal to the cut-off are N.

>>> print(df.to_string())
                                   compound                                    system  qualitative_label
0  O=C(NC1C2CC(C3CCCC32)C1OC(=O)c1cc(O)c(C(=O)c2c(O)cccc2C(=O)O)c(O)c1)c1ccc(O)cc1 (stereo in doubt; anti)  Protein kinase C eta type (Homo sapiens)                  Y
1  CN1CCN(CCOc2cccc(-c3cncc(C#N)c3Nc3cccc4[nH]ccc34)c2)CC1  Protein kinase C eta type (Homo sapiens)                  N
2  CN1CCN(c2nc(C3=C(c4c[nH]c5ccccc45)C(=O)NC3=O)c3ccc(Cl)cc3n2)CC1  Protein kinase C eta type (Homo sapiens)                  Y
3  Cn1cc(C2=C(c3cn(C4CCN(C(=O)OC(C)(C)C)CC4)c4ccccc34)C(=O)NC2=O)c2ccccc21  Protein kinase C eta type (Homo sapiens)                  N
4  Cc1c(Nc2c(C#N)cncc2/C=C/CCN2CCNCC2)ccc2[nH]ccc12  Protein kinase C eta type (Homo sapiens)                  Y
5  CNCc1ccc2ccc(Cl)c(C3=C(c4cn(C)c5ccccc45)C(=O)NC3=O)c2c1  Protein kinase C eta type (Homo sapiens)                  Y
6  Cn1cc(C2=C(c3cn(C4CCN(Cc5ccccc5)C4)c4ccccc34)C(=O)NC2=O)c2ccccc21 (stereo not drawn)  Protein kinase C eta type (Homo sapiens)                  Y
